Below is a list of entries, each paired with its recorded AC50 value.
# System Under Test: PKR WT (Homo sapiens)
# Procedure Details: PKR WT enzymatic AC50 assay
# Type: biochemical
# Experimental Context: wild type PKR
# Description: • PKR or PKR mutant enzyme solution was diluted in assay buffer. • 2 μL of test compound was added into wells first, and then 180 μL reaction mix was added. • Reactions mixture with test compound was assembled except for ADP, and plates were stored for 60 minutes at room temperature. • 20 uL ADP was added to start reaction at room temperature and reaction progress was measured as changes in absorbance at 340 nm wavelength at room temperature. […]

{"Compound": "Cc1cc(C(=O)N2CCC(O)(c3ccccc3Cl)CC2)ccc1NS(=O)(=O)c1cccc2nccnc12 [Compound 119]", "Observable": "AC50", "Meas Value": "< 100 nM"}

Now for the compound whose AC50 we want.
**Query** Can you share its AC50? I mean this compound: CC(C)CC1(O)CCN(C(=O)c2ccc(NS(=O)(=O)c3cccc4csnc34)cc2)CC1 [Compound 376]
**Result** 101 to 1000 nM

---

Below is a list of entries, each paired with its recorded AC50 value.
# System Under Test: PKR WT (Homo sapiens, UniProt P30613)
# Sequence (P30613 whole entry): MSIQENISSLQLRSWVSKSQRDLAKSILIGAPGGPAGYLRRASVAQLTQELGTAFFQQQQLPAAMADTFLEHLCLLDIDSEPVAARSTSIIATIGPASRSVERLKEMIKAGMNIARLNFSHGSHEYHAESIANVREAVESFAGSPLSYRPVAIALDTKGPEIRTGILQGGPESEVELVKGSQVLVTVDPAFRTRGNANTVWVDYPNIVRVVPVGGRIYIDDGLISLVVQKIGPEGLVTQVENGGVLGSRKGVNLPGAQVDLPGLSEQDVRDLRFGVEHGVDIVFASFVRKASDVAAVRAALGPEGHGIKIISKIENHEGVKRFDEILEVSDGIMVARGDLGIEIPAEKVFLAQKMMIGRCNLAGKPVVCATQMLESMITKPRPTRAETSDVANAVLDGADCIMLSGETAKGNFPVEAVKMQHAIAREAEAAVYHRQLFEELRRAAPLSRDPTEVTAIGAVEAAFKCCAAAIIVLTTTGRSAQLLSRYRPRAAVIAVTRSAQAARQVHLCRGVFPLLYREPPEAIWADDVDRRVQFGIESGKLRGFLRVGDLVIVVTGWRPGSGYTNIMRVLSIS
# Procedure Details: PKR WT enzymatic AC50 assay
# Assay type: biochemical
# Experimental Context: wild type PKR
# Experimental: • PKR or PKR mutant enzyme solution was diluted in assay buffer. • 2 μL of test compound was added into wells first, and then 180 μL reaction mix was added. • Reactions mixture with test compound was assembled except for ADP, and plates were stored for 60 minutes at room temperature. • 20 uL ADP was added to start reaction at room temperature and reaction progress was measured as changes in absorbance at 340 nm wavelength at room temperature. […]

// worked examples, AC50 included
{"Compound": "CC(C)CC1(O)CCN(C(=O)c2ccc(NS(=O)(=O)c3cccc4sc(N)nc34)cc2)CC1", "Meas Value": "< 100 nM"}
{"Compound": "CN1C(=O)C=C2C=C(S(=O)(=O)Nc3ccc(C(=O)N4CCC(O)(Cc5ccccc5)CC4)cc3)C=CC21 (stereo not drawn)", "Meas Value": "101 to 1000 nM"}

**Query** Give recorded AC50 with PKR WT (Homo sapiens, UniProt P30613) for the following compound: Cc1cccc(C2(O)CCN(C(=O)c3ccc(NS(=O)(=O)c4cccc5cccnc45)cc3)CC2)n1
**Result** 101 to 1000 nM

**Query** Give recorded AC50 with PKR WT (Homo sapiens, UniProt P30613) for the following compound: O=C(c1ccc(NS(=O)(=O)c2cccc3scnc23)cc1)N1CCC(O)(CC2CCC2)CC1
**Result** < 100 nM

**Query** Give recorded AC50 with PKR WT (Homo sapiens, UniProt P30613) for the following compound: O=C(c1ccc(NS(=O)(=O)c2cccc3c2OC(F)(F)O3)cc1)N1CCC(O)(c2ccccc2Cl)CC1
**Result** 1010 to 10000 nM

**Query** Give recorded AC50 with PKR WT (Homo sapiens, UniProt P30613) for the following compound: O=C(c1ccc(NS(=O)(=O)c2ccc(F)c3scnc23)cc1)N1CCC(O)(c2ccccc2Cl)CC1 [Compound 378]
**Result** 101 to 1000 nM

**Query** Give recorded AC50 with PKR WT (Homo sapiens, UniProt P30613) for the following compound: Cn1cc(CC2(O)CCN(C(=O)c3ccc(NS(=O)(=O)c4cccc5scnc45)cc3)CC2)cn1
**Result** 101 to 1000 nM

**Query** Give recorded AC50 with PKR WT (Homo sapiens, UniProt P30613) for the following compound: O=C(c1ccc(NS(=O)(=O)c2cccc3nccnc23)cc1)N1CCC(O)(CC2CC2)CC1
**Result** < 100 nM

**Query** Give recorded AC50 with PKR WT (Homo sapiens, UniProt P30613) for the following compound: Cn1cc(C2(O)CCN(C(=O)c3ccc(NS(=O)(=O)c4cccc5scnc45)cc3)CC2)cn1
**Result** 101 to 1000 nM
